Give viability, T/C for every item shown.
Tested on: OVCAR-8 complex spheroid, growth inhibition
protocol-summary: Anticancer human tumor OVCAR-8 cell line growth inhibition [Asc];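 note: spheroids exposed to agents for 7 days before readout; percent viability relative to DMSO vehicle wells taken as 100%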
reported-conditions: second compound 3.16 µM; first compound 10 µM; active compounds read low

Quick one: viability, T/C of O=C(c1cc(Cc2n[nH]c(=O)c3ccccc23)ccc1F)N1CCN(C(=O)C2CC2)CC1 + Cc1c(S(C)(=O)=O)c(-c2cc(F)cc(N3CCN(c4ccc(NS(=O)(=O)c5ccc(NC(CCN6CCC(C(=O)OCCCP(=O)(O)O)CC6)CSc6ccccc6)c(S(=O)(=O)C(F)(F)F)c5)cc4)CC3)c2)c(-c2ccc(Cl)cc2)n1C(C)C ?
107%

Tell me the measured viability, T/C of C#Cc1c(F)ccc2cc(O)cc(-c3ncc4c(N5CC6CCC(C5)N6)nc(OCC56CCCN5CC(F)C6)nc4c3F)c12 (stereo not drawn) + Cc1c(S(C)(=O)=O)c(-c2cc(F)cc(N3CCN(c4ccc(NS(=O)(=O)c5ccc(NC(CCN6CCC(C(=O)OCCCP(=O)(O)O)CC6)CSc6ccccc6)c(S(=O)(=O)C(F)(F)F)c5)cc4)CC3)c2)c(-c2ccc(Cl)cc2)n1C(C)C , please.
108%

Would you kindly share the measured viability, T/C for C=CC(=O)N1CCN(c2nc(=O)n(-c3c(C)ccnc3C(C)C)c3nc(-c4c(O)cccc4F)c(F)cc23)C(C)C1 (stereo not drawn) + Cc1c(S(C)(=O)=O)c(-c2cc(F)cc(N3CCN(c4ccc(NS(=O)(=O)c5ccc(NC(CCN6CCC(C(=O)OCCCP(=O)(O)O)CC6)CSc6ccccc6)c(S(=O)(=O)C(F)(F)F)c5)cc4)CC3)c2)c(-c2ccc(Cl)cc2)n1C(C)C ?
105%
